Data provenance is patent US20140057857A1.

Target: GST-Bcl-xL
Sequence (Q07817 whole entry): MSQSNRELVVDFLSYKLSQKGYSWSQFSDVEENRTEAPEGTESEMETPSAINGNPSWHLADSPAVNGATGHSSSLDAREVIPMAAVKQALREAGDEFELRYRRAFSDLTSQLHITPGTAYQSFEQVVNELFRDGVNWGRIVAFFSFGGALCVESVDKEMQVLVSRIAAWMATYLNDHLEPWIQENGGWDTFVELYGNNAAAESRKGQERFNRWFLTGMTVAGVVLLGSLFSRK
Assay: fluorescence polarization assay, labeled peptide on GST-Bcl-xL
pKd: −log10 of the molar value.
// reported pKd for each item listed

AAXLRRIGDXVNLRQKLLN (N-terminal FITC-Ahx; D-cysteine at position 3; D-Cys 3 and L-Cys 10 cross-linked by Bph; C-terminal amide, also called Fl-6a; Fluo-6a) [Fluorescein-labeled cross-linked Noxa peptide 6a]    < 5.70

Attention now turns to another entry.
Need pKd, item AAXLRRIGDXVNLRQKLLN (N-terminal FITC-Ahx; Cys 3 and Cys 10 cross-linked by Bph; C-terminal amide, also called Fl-5a; Fluo-5a) [Fluorescein-labeled cross-linked Noxa peptide 5a] < 5.70
